Entry source: patent US20160376333A1

target.desc: T1, human Mcl-1 a.a. 172-327 with C-terminal avi-6his tag (human)
T1 chain: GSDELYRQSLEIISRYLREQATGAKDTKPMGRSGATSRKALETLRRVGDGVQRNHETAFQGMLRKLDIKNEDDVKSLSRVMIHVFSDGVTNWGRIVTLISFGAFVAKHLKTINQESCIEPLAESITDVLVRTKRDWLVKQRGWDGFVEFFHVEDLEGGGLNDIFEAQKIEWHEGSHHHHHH
experimental.details: BLI at a single analyte concentration (50 nM, 600 s association, then buffer); biotinylated BCL2 protein on a streptavidin sensor
parameter.measured: binding result

[[record]]
binder = "M-CDP05 (designed binder) ADPKKVLDKAKDQAENRVRELKQKLEELYKEARKLDLTQEERHRLETKALSALLAAIGDILDAIMQALQEAAKLKKAGLVNSQQLDELKRRLEELRKEASRKARDYGREFWLKLDY"
measurement = "binds"

[[record]]
binder = "M-CDP02 (designed binder) ADPKKVLDKAKDQAENRVRELKQELEELYKEARKLDLTQEERRKLEESYIAAMLRAIGDIFNAIMQAKNEADKLKKAGLVNSQQLDELRRRLEELRKEASLKAEDYGREFQEKLEY"
measurement = "binds"

[[record]]
binder = "M-CDP01 (designed binder) ADPKKVLDKAKDQAENRVRELKQELEELYKKARKLDLTQEERRKLEEEAIAALLRAIGDIYNAIQQALNEADKLKKAGLVNSQQLDELKRRLEELKKEASKKARDYGLEFFEKLDY"
measurement = "binds"

[[record]]
binder = "M-CDP03 (designed binder) ADPKKVLDKAKDQAENRVRELKQDLERLYKEARKLDLTQEMRRKLQEKAAAAMIRAIGDINNAIYQALQEADKLKKAGLVNSQQLDELKRRLEELQKEASRKAQAYGEEFMLKLEY"
measurement = "binds"

